After 3 hours (KD) knocking-down rate values by entry
Test system: adult cat fleas
Assay: Effect on cat flea (1): glass tube residue contact test, knock-down and mortality
Type: in vivo, cat flea (Ctenocephalides felis)
Parameters: unit not given here
Conditions: 0.001 mg/tube
// print number alone

A selection of reference data follows.
FC(Cl)(Cl)Sc1cn(-c2ncc(C(F)(F)F)cc2Cl)c2ccc(Cl)cc12 [Compound 3]	0
FC(F)(F)Sc1cn(-c2c(Cl)cc(C(F)(F)F)cc2Cl)c2ccccc12 [Compound 25]	0
N#Cc1nn(-c2c(Cl)cc(C(F)(F)F)cc2Cl)c(N)c1[S+]([O-])C(F)(F)F (centres unmarked) [Fipronil, reference compound]	0
Cc1c(SC(F)(Cl)Cl)c2ccccc2n1-c1ncc(C(F)(F)F)cc1Cl [Compound 14]	0
O=S(=O)(c1cn(-c2c(Cl)cc(C(F)(F)F)cc2Cl)c2ccccc12)C(F)(Cl)Cl [Compound 32]	0

What the record says about FC(Cl)(Cl)Sc1cn(-c2ncc(C(F)(F)F)cc2Cl)c2ccccc12 [Compound 1] : After 3 hours (KD) knocking-down rate is 0

What the record says about FC(Cl)(Cl)Sc1cn(-c2c(Cl)cc(C(F)(F)F)cc2Cl)c2ccccc12 [Compound 17] : After 3 hours (KD) knocking-down rate is 0

What the record says about Fc1ccc2c(c1)c(SC(F)(Cl)Cl)cn2-c1ncc(C(F)(F)F)cc1Cl [Compound 2] : After 3 hours (KD) knocking-down rate is 0

Source listed as patent US20090270459A1.
